- experimental target: hDPP-IV (Homo sapiens)
- Sequence (P27487 whole entry): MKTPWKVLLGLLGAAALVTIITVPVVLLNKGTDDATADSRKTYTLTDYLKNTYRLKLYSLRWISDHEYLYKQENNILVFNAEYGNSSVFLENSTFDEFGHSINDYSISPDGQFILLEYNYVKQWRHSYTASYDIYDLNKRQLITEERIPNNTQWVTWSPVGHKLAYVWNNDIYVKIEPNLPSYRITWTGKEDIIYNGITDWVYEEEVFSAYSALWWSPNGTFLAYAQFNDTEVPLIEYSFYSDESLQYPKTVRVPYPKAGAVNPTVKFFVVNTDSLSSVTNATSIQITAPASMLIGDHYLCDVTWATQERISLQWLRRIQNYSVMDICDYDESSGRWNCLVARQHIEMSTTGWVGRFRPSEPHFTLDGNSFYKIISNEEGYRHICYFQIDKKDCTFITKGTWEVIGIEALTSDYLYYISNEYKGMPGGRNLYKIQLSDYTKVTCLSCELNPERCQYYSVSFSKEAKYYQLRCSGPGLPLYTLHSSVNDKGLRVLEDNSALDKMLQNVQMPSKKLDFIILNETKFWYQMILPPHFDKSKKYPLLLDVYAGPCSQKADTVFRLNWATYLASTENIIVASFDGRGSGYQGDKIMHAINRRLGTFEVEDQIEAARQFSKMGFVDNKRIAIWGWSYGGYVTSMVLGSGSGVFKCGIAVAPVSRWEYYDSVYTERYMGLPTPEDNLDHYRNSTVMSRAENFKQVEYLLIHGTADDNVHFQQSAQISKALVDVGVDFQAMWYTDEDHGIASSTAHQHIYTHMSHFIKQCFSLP
- assay name: DPP-IV inhibitory assay
- Format: biochemical
Peptide text beside a SMILES is read from it.
measured quantity: IC50 (µM)

Sample answers from the record:
compound	quantitative readout
C[C@H](NC(=O)[C@@H](N)Cc1c[nH]c2ccccc12)C(=O)N[C@@H](CC(N)=O)C(=O)O [WAN] (H-Trp-Ala-Asn-OH)	302
CC(C)C[C@H](NC(=O)[C@@H](NC(=O)[C@@H](N)Cc1c[nH]c2ccccc12)C(C)C)C(=O)O [WVL] (H-Trp-Val-Leu-OH)	399

[1] CC(C)[C@H](NC(=O)[C@@H](N)Cc1c[nH]c2ccccc12)C(=O)N[C@@H](CC(N)=O)C(=O)O [WVN] (H-Trp-Val-Asn-OH)
[2] N[C@@H](Cc1c[nH]c2ccccc12)C(=O)N1CCC[C@H]1C(=O)N[C@@H](CS)C(=O)O [WPC] (H-Trp-Pro-Cys-OH)
// which entry has the larger IC50 value, 1 or 2 ? Label of pick, please. 2
(2: 739 µM, 1: 373 µM)
